- test.protocol: Inhibition of cell viability in human UMUC14 cells harboring FGFR3 S249C mutant incubated for 72 to 120 hrs by Cell Titer Glo assay
- Format: functional, cell-based
test.readout: IC50 (nM)

>  <compound.smiles>
C[C@@H](Oc1ccc2[nH]nc(-c3ccc(N4CC5(CCS(=O)(=O)CC5)C4)nc3)c2c1)c1c(Cl)cncc1Cl

>  <endpoint.unit>
nM

>  <val>
10

$$$$
>  <compound.smiles>
C[C@@H](Oc1ccc2[nH]nc(-c3ccc(N4CC5(C4)CN(S(C)(=O)=O)C5)nc3)c2c1)c1c(Cl)cncc1Cl

>  <endpoint.unit>
nM

>  <val>
16

$$$$
>  <compound.smiles>
C[C@@H](Oc1ccc2[nH]nc(-c3ccc(N4CC5(C4)CN(S(C)(=O)=O)C5)nn3)c2c1)c1c(Cl)cncc1Cl

>  <endpoint.unit>
nM

>  <val>
34

$$$$
>  <compound.smiles>
C[C@@H](Oc1ccc2[nH]nc(-c3ccc(N4CC5(CCS(=O)(=O)C5)C4)nc3)c2c1)c1c(Cl)cncc1Cl

>  <endpoint.unit>
nM

>  <val>
10

$$$$

====

- target.under.test: Fibroblast growth factor receptor 3 (Homo sapiens, UniProt P22607, N540K)
- Sequence (P22607 23-806 N540K limits assumed): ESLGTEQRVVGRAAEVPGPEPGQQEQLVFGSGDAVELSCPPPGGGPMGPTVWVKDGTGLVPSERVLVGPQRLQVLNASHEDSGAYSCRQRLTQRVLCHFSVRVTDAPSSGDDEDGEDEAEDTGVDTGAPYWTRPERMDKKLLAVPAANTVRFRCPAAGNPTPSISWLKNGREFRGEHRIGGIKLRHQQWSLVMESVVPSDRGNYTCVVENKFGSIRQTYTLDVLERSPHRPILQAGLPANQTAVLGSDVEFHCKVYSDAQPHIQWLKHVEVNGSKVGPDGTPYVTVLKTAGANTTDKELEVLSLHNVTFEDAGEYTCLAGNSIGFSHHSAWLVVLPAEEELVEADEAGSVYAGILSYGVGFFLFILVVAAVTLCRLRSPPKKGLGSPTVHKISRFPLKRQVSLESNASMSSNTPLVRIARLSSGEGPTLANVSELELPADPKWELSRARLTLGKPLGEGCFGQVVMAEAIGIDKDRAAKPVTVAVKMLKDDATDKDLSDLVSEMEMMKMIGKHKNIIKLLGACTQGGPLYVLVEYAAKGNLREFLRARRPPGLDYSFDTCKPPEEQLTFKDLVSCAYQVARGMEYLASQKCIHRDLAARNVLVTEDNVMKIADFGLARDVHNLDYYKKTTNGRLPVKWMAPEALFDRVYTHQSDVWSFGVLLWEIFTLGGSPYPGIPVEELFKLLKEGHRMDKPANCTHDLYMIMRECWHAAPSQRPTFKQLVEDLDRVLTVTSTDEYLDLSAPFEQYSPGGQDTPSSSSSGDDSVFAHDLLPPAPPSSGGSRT
- test.protocol: Inhibition of FGFR3 N540K mutant (unknown origin) by NanoBRET assay
pIC50: −log10 of the molar value.
test.readout: pIC50

>  <compound.smiles>
C[C@@H](Oc1ccc2[nH]nc(-c3ccc(N4CC5(C4)CN(S(C)(=O)=O)C5)nc3)c2c1)c1c(Cl)cncc1Cl

>  <val>
7.14

$$$$

====

- test.protocol: Thermodynamic solubility in FeSSIF
- Type: ADME
- condition.parameters: read-out: Therm_solubility
test.readout: solubility thermodynamic (µM)

>  <compound.smiles>
C[C@@H](Oc1ccc2[nH]nc(-c3ccc(N4CC5(C4)CN(S(C)(=O)=O)C5)nc3)c2c1)c1c(Cl)cncc1Cl

>  <endpoint.unit>
µM

>  <val>
514

$$$$

====

- test.protocol: Thermodynamic solubility in FaSSGF
- Type: ADME
- condition.parameters: read-out: Therm_solubility

>  <compound.smiles>
C[C@@H](Oc1ccc2[nH]nc(-c3ccc(N4CC5(C4)CN(S(C)(=O)=O)C5)nc3)c2c1)c1c(Cl)cncc1Cl

>  <solubility thermodynamic / µM>
34

$$$$

====

- test.protocol: AUC (last) in dog at 10 mg/kg, po measured for 24 hrs by LC-MS/MS analysis
- Format: ADME, organism-based, Canis lupus familiaris
- condition.parameters: in vivo

>  <compound.smiles>
C[C@@H](Oc1ccc2[nH]nc(-c3ccc(N4CC5(C4)CN(S(C)(=O)=O)C5)nc3)c2c1)c1c(Cl)cncc1Cl

>  <endpoint.unit>
ng·h/mL

>  <AUC(0-t) at 24 h>
58300

$$$$

====

- test.protocol: Oral bioavailability in monkey at 10 mg/kg measured for 24 hrs by LC-MS/MS analysis
- Format: ADME, organism-based, Macaca mulatta
- condition.parameters: rhesus monkey, in vivo

>  <compound.smiles>
C[C@@H](Oc1ccc2[nH]nc(-c3ccc(N4CC5(C4)CN(S(C)(=O)=O)C5)nc3)c2c1)c1c(Cl)cncc1Cl

>  <bioavailability>
106%

$$$$

====

- target.under.test: Fibroblast growth factor receptor 4 (Homo sapiens)
- Sequence (P22455 whole entry): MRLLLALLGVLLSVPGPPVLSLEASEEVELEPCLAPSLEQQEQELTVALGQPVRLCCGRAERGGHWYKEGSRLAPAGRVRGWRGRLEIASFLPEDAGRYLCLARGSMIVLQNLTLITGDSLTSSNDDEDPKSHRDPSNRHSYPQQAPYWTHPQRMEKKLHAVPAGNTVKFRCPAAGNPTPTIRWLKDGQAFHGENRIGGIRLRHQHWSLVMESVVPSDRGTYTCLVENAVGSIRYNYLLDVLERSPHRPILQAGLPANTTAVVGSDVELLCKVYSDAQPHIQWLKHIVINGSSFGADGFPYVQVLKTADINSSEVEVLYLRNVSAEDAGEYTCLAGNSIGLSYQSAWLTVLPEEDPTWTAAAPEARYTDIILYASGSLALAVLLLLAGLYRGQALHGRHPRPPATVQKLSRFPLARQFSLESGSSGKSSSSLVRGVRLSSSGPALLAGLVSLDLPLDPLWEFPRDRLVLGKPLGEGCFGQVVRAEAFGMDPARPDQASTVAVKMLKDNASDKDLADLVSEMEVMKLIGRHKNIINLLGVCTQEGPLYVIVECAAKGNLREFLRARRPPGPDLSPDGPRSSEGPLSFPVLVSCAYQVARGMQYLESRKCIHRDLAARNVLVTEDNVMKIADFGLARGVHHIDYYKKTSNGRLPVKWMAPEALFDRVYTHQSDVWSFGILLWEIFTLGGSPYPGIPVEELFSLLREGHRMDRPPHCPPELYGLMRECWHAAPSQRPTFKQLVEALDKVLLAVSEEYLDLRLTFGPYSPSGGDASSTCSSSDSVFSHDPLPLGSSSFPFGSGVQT
pIC50: −log10 of the molar value.

>  <compound.smiles>
C[C@@H](Oc1ccc2[nH]nc(-c3ccc(N4CC5(C4)CN(S(C)(=O)=O)C5)nc3)c2c1)c1c(Cl)cncc1Cl

>  <pIC50>
7.96

$$$$
